Cited source for all entries: patent US20180008587A1

biological target: wild-type Androgen Receptor (AR-wt) (Homo sapiens); construct: expressed in transfected cells; host or cells: LNCaP (LNCaP AR (cs)); experiment: LNCaP-AR-wt AG reporter assay (ARE firefly luciferase, agonist mode); type: cell-based; conditions: maximum % stimulation (agonist response) over tested concentration range; read-out: LNCaP-AR-wt AG MAX % Stim
Kind request: treat 0.6% as inclusive, so Emax at 0.6% or higher is condition met, anything lower is condition not met.

Sample answers from the record:
# entry.smiles, category.label
data = [
    ("CNC(=O)c1ccc(N2C(=S)N(c3cnc(C#N)c(C(F)F)c3)C(=O)C23CCC3)cc1F", "condition not met"),
    ("Cc1ccc(N2C(=S)N(c3cnc(C#N)c(C(F)(F)F)c3)C(=O)C23CCC3)cc1F", "condition met"),
    ("Cc1cc(N2C(=O)C3(CCC3)N(c3ccc(C(=O)NCc4cccs4)c(F)c3)C2=S)cnc1C#N", "condition not met"),
    ("CCCCNC(=O)c1ccc(N2C(=S)N(c3cnc(C#N)c(C(F)(F)F)c3)C(=O)C23CCC3)cc1F", "condition not met"),
    ("Cc1cc(N2C(=O)C3(CCC3)N(c3ccc(C(=O)Nc4cccc(Cl)c4)c(F)c3)C2=S)cnc1C#N", "condition met"),
    ("N#Cc1ncc(N2C(=O)C3(CCC3)N(c3ccc(OCCc4ncccn4)c(F)c3)C2=S)cc1C(F)(F)F", "condition not met"),
    ("CN(CCCNC(=O)c1ccc(N2C(=S)N(c3cnc(C#N)c(C(F)(F)F)c3)C(=O)C23CCC3)cc1F)C1CCCC1", "condition met"),
]

Next, consider the following compound.
Task: Confirm if Emax reported for the compound `N#Cc1ncc(N2C(=O)C3(CCC3)N(c3ccc(C(=O)NCCc4ccncc4)c(F)c3)C2=S)cc1C(F)(F)F` is 0.6% or above.
Output: condition not met

###

We begin with a simple list: items and their reported Emax.
Target: F876L mutant Androgen Receptor (AR-F876L) (Homo sapiens, UniProt P10275, F877L)
Construct: expressed in transfected cells; host or cells: LNCaP (LNCaP F876L)
Sequence (P10275 1-920 F877L): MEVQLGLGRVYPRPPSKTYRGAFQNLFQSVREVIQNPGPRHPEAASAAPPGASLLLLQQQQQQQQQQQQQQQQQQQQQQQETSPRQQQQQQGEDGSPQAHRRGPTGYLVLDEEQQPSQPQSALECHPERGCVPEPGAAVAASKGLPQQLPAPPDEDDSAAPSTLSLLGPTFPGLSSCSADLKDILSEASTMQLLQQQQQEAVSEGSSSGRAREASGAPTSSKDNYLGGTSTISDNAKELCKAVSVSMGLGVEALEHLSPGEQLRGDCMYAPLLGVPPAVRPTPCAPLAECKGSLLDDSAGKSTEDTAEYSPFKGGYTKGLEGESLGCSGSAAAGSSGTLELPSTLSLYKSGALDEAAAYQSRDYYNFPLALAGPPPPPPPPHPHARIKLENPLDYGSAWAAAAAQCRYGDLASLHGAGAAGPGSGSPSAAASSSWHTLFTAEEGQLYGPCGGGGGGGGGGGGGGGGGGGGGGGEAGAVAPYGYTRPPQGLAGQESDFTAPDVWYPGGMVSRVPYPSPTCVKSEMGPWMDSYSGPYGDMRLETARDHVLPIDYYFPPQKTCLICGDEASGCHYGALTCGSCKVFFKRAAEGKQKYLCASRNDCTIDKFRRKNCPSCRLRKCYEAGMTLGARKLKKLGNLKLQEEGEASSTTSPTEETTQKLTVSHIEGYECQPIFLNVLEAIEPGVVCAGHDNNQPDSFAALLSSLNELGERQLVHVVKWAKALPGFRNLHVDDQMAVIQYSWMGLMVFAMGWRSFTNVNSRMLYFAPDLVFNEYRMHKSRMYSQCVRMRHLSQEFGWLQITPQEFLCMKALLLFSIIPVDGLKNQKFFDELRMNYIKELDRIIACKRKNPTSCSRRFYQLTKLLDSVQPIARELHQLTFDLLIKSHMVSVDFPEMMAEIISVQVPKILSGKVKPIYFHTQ
Assay: LNCaP-AR-F876L AG reporter assay (ARE firefly luciferase, agonist mode)
Type: cell-based
Conditions: maximum % stimulation (agonist response) over tested concentration range; read-out: LNCaP-AR-F876L AG MAX % Stim
Write down the numeric answer in % and omit the unit.

Consider the worked cases shown below.
# compound, units.symbol, recorded.measurement
measured = [
    ("CNC(=O)c1ccc(N2C(=S)N(c3cnc(C#N)c(C)c3)C(=O)C23CCC3)cc1F [Cpd 16]", "%", 0),
    ("CNS(=O)(=O)c1ccc(N2C(=S)N(c3cnc(C#N)c(C(F)(F)F)c3)C(=O)C23CCC3)cc1 [Cpd 25]", "%", 0.2),
]

Kindly review the next compound as well.
Task: Record request: Emax value, item N#Cc1ncc(N2C(=O)C3(CCC3)N(c3ccc(C(=O)NCCc4ccncc4)c(F)c3)C2=S)cc1C(F)(F)F [Cpd 14]
Output: -0.1

###

target: wild-type Androgen Receptor (AR-wt) (Homo sapiens, UniProt P10275); construct: expressed in transfected cells; host or cells: LNCaP (LNCaP AR (cs)); assay: LNCaP-AR-wt ANT reporter assay (ARE firefly luciferase, antagonist mode); assay type: cell-based; details: antagonist mode, 400 pM R-1881 challenge; −Log10(IC50 [Molar]); read-out: LNCaP-AR-wt ANT pIC50 (converted)
recorded.endpoint: IC50

Task: Record request: IC50 value, item `N#Cc1ncc(N2C(=O)C3(CCC3)N(c3ccc(C(=O)NCc4ccco4)c(F)c3)C2=S)cc1C(F)(F)F`
Output: 1450 nM

###

We begin with a simple list: items and their reported Emax.
biological target: wild-type Androgen Receptor (AR-wt) (Homo sapiens); construct: expressed in transfected cells; host or cells: LNCaP (LNCaP AR (cs)); test: LNCaP-AR-wt AG reporter assay (ARE firefly luciferase, agonist mode); type: cell-based; conditions: maximum % stimulation (agonist response) over tested concentration range; read-out: LNCaP-AR-wt AG MAX % Stim
Write down the numeric answer in % and omit the unit.

# entry.smiles, units.symbol, Emax
records = [
    ("Cc1cc(N2C(=O)C3(CCC3)N(c3ccc(C(=O)Nc4ccccc4F)c(F)c3)C2=S)cnc1C#N", "%", -0.1),
    ("Cc1cc(N2C(=O)C3(CCC3)N(c3ccc(C(=O)Nc4ccc(Cl)cc4)c(F)c3)C2=S)cnc1C#N", "%", 0.6),
    ("N#Cc1ncc(N2C(=O)C3(CCC3)N(c3ccc(C(=O)NCCN4CCOCC4)c(F)c3)C2=S)cc1C(F)(F)F", "%", 0),
    ("Cc1cc(N2C(=O)C3(CCC3)N(c3ccc(OC4CCN(CCO)CC4)cc3)C2=S)cnc1C#N", "%", 1.1),
    ("CNC(=O)c1ccc(N2C(=S)N(c3cnc(C#N)c(C)c3)C(=O)C23CCC3)cc1OC", "%", 0.7),
    ("Cc1cc(N2C(=O)C3(CCC3)N(c3ccc(-c4cccnc4C)cc3)C2=S)cnc1C#N", "%", 2.2),
    ("N#Cc1ncc(N2C(=O)C3(CCC3)N(c3ccc(C(=O)NCCc4cccnc4)c(F)c3)C2=S)cc1C(F)(F)F", "%", 1.5),
    ("N#Cc1ncc(N2C(=O)C3(CCC3)N(c3cccc(F)c3F)C2=S)cc1C(F)(F)F", "%", 1.8),
]

Task: Record request: Emax value, item `Cc1cc(N2C(=O)C3(CCC3)N(c3ccc(C(=O)Nc4ccc(F)cc4)c(F)c3)C2=S)cnc1C#N`
Output: 1

Task: Same question for `N#Cc1ncc(N2C(=O)C3(CCC3)N(c3ccc(C(=O)Nc4ccccc4)c(F)c3)C2=S)cc1C(F)(F)F` please.
Output: 1.9

Task: Same question for `N#Cc1ncc(N2C(=O)C3(CCC3)N(c3ccc(C(F)(F)F)cc3)C2=S)cc1C(F)(F)F` please.
Output: 0

###

target: wild-type Androgen Receptor (AR-wt) (Homo sapiens); construct: expressed in transfected cells; host or cells: LNCaP (LNCaP AR (cs)); assay: LNCaP-AR-wt AG reporter assay (ARE firefly luciferase, agonist mode); type: cell-based; conditions: maximum % stimulation (agonist response) over tested concentration range; read-out: LNCaP-AR-wt AG MAX % Stim
recorded.endpoint: Emax (%)
Write down the numeric answer in % and omit the unit.

Consider the worked cases shown below.
# compound, units.symbol, Emax
rows = [
    ("CN1CCC(Oc2ccc(N3C(=S)N(c4cnc(C#N)c(C(F)(F)F)c4)C(=O)C34CCC4)c(F)c2)CC1 [Cpd 49]", "%", 0.6),
    ("Cc1cc(N2C(=O)C3(CCC3)N(c3ccc(OCCN4CCN(C)CC4)cc3)C2=S)cnc1C#N [Cpd 10]", "%", 0.6),
]

Kindly review the next compound as well.
Task: Record request: Emax value, item Cc1cc(N2C(=O)C3(CCC3)N(c3ccc(-c4ccco4)cc3)C2=S)cnc1C#N [Cpd 86]
Output: 0.6
